kon: recorded values
target: T1, cynomolgus monkey DLL4 extracellular domain (cynomolgus monkey); test: SPR (Biacore)
T1 construct: extracellular domain; also called cynoDLL4 ECD; Cyno DLL4

| Binder | kon |
| --- | --- |
| 15D6 rat anti-DLL4 monoclonal antibody (antibody, rat IgG2a, V domains shown, rat IgG2a/K hybridoma mAb; also called MC13-15D6.1G7) VH: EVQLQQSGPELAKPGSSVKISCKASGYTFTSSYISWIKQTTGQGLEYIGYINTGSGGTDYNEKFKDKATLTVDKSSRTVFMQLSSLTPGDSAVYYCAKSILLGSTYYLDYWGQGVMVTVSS VL: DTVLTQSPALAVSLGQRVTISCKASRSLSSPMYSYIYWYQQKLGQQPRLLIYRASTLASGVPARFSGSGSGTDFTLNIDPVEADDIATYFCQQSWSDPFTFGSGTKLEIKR | 56000 M⁻¹ s⁻¹ |
| 14G1 rat anti-DLL4 monoclonal antibody (antibody, rat IgG2a, V domains shown, rat IgG2a/K hybridoma mAb; also called MC13-14G1.1B4) VH: EVQLQQSGAELAKPGSSVKISCKASGYTFTNYDISWIKQTNGQGLEYLGYINTGSGGIYSNEKFKGKATLTVDKSSNTAFMQLSSLTPEDTAVYYCVREGNNFDHWGQGVKVTVSS VL: DTVMTQSPASMSTSVGERVTVNCKASQSVGTIVAWFQQKPGQSPKRLIYLATYRHTGVPDRFIGSGFGRDFTLTISNVEAEDLAVYYCLQYGSRPFTFGAGTKLEIKR | 39000 M⁻¹ s⁻¹ |
| 38H12 rat anti-DLL4 monoclonal antibody (antibody, rat IgG2a, V domains shown, rat IgG2a/k hybridoma mAb; also called MC10-38H12.2G8; 38H12 rat mAb) VH: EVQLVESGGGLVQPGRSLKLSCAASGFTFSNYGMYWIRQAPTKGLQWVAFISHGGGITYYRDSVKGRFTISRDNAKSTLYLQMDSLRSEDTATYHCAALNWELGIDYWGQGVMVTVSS VL: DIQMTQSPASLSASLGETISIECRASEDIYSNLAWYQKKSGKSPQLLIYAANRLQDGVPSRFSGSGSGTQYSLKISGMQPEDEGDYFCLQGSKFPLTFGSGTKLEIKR | 260000 M⁻¹ s⁻¹ |
